- EXPERIMENT NOTES: Antiproliferative activity against human H460 cells assessed as inhibition of cell growth after 72 hrs by MTT method
- Format: functional, cell-based
- CONDITION SUMMARY: NCI-H460, 72 h
Each entry belongs to exactly one class, chosen by where its IC50 falls: Low (below 900 nM), Mid (900 nM to below 3000 nM), High (3000 nM or more)

See these solved cases before continuing.
O=C(c1cnc2ccccc2c1)C(CSC(=S)N1CCSCC1)CSC(=S)N1CCSCC1 : High
CN(C)C(=S)SCC(CSC(=S)N(C)C)C(=O)c1ccc(OCc2ccccc2)cc1 : High
CN(C)C(=S)SCC(CSC(=S)N(C)C)C(=O)c1ccccc1 : Mid
CN(C)C(=S)SCC(CSC(=S)N(C)C)C(=O)c1cnc2ccccc2c1 : Low
CN(C)C(=S)SCC(CSC(=S)N(C)C)C(=O)c1cccnc1 : Low
CN1CCN(C(=S)SCC(CSC(=S)N2CCN(C)CC2)C(=O)c2cnc3ccccc3c2)CC1 : Mid
O=C(c1cnc2ccccc2c1)C(CSC(=S)N1CCCC1)CSC(=S)N1CCCC1 : Low
CN(C)C(=S)SCC(CSC(=S)N(C)C)C(=O)c1cnn2ncccc12 : High

Input: Please classify: CN(C)C(=S)SCC(CSC(=S)N(C)C)C(=O)c1ccc(F)cc1
Output: Mid

Input: GET /class?item= CN(C)C(=S)SCC(CSC(=S)N(C)C)C(=O)c1nccs1
Output: Low

Input: Field: class (IC50) — entry: CCN(CC)C(=S)SCC(CSC(=S)N(CC)CC)C(=O)c1cnc2ccccc2c1
Output: High

---

Would you mind telling me the reported pIC50 of each entry?
- EXPERIMENT NOTES: Antiproliferative activity against human H460 cells assessed as inhibition of cell growth after 72 hrs by MTT method
- Format: functional, cell-based
- CONDITION SUMMARY: NCI-H460, 72 h
Numbers only, as −log10 of the molar value.

Examples from the recorded data:
CN(C)C(=S)SCC(CSC(=S)N(C)C)C(=O)c1csc2ccccc12 : 6.07
CN(C)C(=S)SCC(CSC(=S)N(C)C)C(=O)c1cnc2ccccn12 : 4.89
CN(C)C(=S)SCC(CSC(=S)N(C)C)C(=O)c1c(-c2ccccc2)nn2ccccc12 : 5.39

# per-item lookup of pIC50; items listed below
1. CN(Cc1cccnc1)C(=S)SCC(CSC(=S)N(C)Cc1cccnc1)C(=O)c1cnc2ccccc2c1
2. CN(C)C(=S)SCC(CSC(=S)N(C)C)C(=O)c1cc2ccccc2oc1=O

Output:
1. 6.00
2. 6.18

---

- EXPERIMENT NOTES: Antiproliferative activity against human H460 cells assessed as inhibition of cell growth after 72 hrs by MTT method
- Type: functional, cell-based
- CONDITION SUMMARY: NCI-H460, 72 h
OBSERVATION TYPE: pIC50
Numbers only, as −log10 of the molar value.

Solved entries:
CN(C)C(=S)SCC(CSC(=S)N(C)C)C(=O)c1cnn2ccccc12 : 4.50
Cc1nc2ccccn2c1C(=O)C(CSC(=S)N(C)C)CSC(=S)N(C)C : 3.82
CN(C)C(=S)SCC(CSC(=S)N(C)C)C(=O)c1ccc[nH]1 : 4.01
O=C(c1cnc2ccccc2c1)C(CSC(=S)N1CCOCC1)CSC(=S)N1CCOCC1 : 6.24
CN(C)C(=S)SCC(CSC(=S)N(C)C)C(=O)c1ccc(O)cc1 : 4.52

Count: 5. Required value per item: pIC50.
1. COc1cccc(C(=O)C(CSC(=S)N(C)C)CSC(=S)N(C)C)c1
2. COc1ccccc1C(=O)C(CSC(=S)N(C)C)CSC(=S)N(C)C
3. CN(C)C(=S)SCC(CSC(=S)N(C)C)C(=O)c1c(-c2ccccc2)nn2ncccc12
4. CN(C)C(=S)SCC(CSC(=S)N(C)C)C(=O)c1ccc2c(c1)ncn2-c1ccccc1
5. O=C(c1cnc2ccccc2c1)C(CSC(=S)N1CCCCC1)CSC(=S)N1CCCCC1

Output:
1: 5.91; 2: 6.09; 3: 4.24; 4: 5.66; 5: 5.33

---

- Tested on: HepG2
- EXPERIMENT NOTES: Antiproliferative activity against human HepG2 cells assessed as inhibition of cell growth after 72 hrs by MTT method
- Assay type: functional, cell-based
- CONDITION SUMMARY: HepG2, 72 h
OBSERVATION TYPE: pIC50
One number for each entry, as −log10 of the molar value.

Recorded result, CN(C)C(=S)SCC(CSC(=S)N(C)C)C(=O)c1cnc2ccccc2c1 , pIC50: 7.27

Source: ChEMBL document CHEMBL3414529
